FYI, the data here is from ChEMBL document CHEMBL3885861.

Organism: Rattus norvegicus
assay.text: Open TG-GATES - Regimen: Daily Repeat
Type: toxicity, organism-based, Sprague-Dawley
Parameters: regimen Daily Repeat, gender Male, age 6 weeks
details: in vivo, po, 300 mg/kg, […], tissue Plasma, route gavage, dose level Middle, time 14 day
property.label: AST (IU/L)
Quick note: give the figure in IU/L, leave out the unit.

Prompt line: Return reported AST; argument: CC(=O)[C@@]1(O)CC[C@H]2[C@@H]3C=C(Cl)C4=CC(=O)CC[C@]4(C)[C@H]3CC[C@@]21C
Response line: 67

Prompt line: Return reported AST; argument: CC(S)C(=O)NCC(=O)O (centres undefined)
Response line: 65.8

Prompt line: Return reported AST; argument: CCCCNC(=O)NS(=O)(=O)c1ccc(C)cc1 [TOLBUTAMIDE]
Response line: 69

Prompt line: Return reported AST; argument: O=C(O)c1ccccc1Nc1ccccc1
Response line: 58.4
